Recorded IC50 for the following compounds
tested on: Plasmodium falciparum; assay: Antimalarial activity against chloroquine-sensitive Plasmodium falciparum 3D7 infected in erythrocytes after 96 hrs by [3H]hypoxanthine incorporation assay; type: functional, organism-based
metric: IC50 (nM)

>>> measuredresult("C[C@H]1[C@H](OC(=O)CCC(=O)O)O[C@@H]2O[C@@]3(C)CC[C@H]4[C@H](C)CC[C@@H]1[C@@]24OO3 [ARTESUNATE]")
2000
>>> measuredresult("C[C@H]1c2cccc(O)c2C(=O)C2=C(O)[C@]3(O)C(=O)C(C(N)=O)=C(O)[C@@H](N(C)C)[C@@H]3[C@@H](O)[C@@H]21 [DOXYCYCLINE]")
1700
>>> measuredresult("CCOC(=O)c1cn(C2CC2)c2cc(N3CCNCC3)c(F)cc2c1=O [CIPROFLOXACIN ETHYL ESTER]")
1600
>>> measuredresult("O=C(O)c1cn(C2CC2)c2cc(N3CCNCC3)c(F)cc2c1=O [CIPROFLOXACIN]")
10100

----------
test system: Plasmodium falciparum; experiment: Antimalarial activity against chloroquine-sensitive Plasmodium falciparum IMTVo1 infected in erythrocytes after 48 hrs by [3H]hypoxanthine incorporation assay; assay type: functional, organism-based
pIC50: −log10 of the molar value.
metric: pIC50

>>> measuredresult("O=C(O)c1cn(C2CC2)c2cc(N3CCNCC3)c(F)cc2c1=O")
4.29

----------
assay: Therapeutic index, ratio of IC50 for concanavalin-stimulated BALB/c mice (Mus musculus) splenocytes to IC50 for Plasmodium falciparum W2 after 48 hrs; details: read-out: Ratio IC50
metric: selectivity ratio at 48 h

>>> measuredresult("CCOC(=O)c1cn(C2CC2)c2cc(N3CCNCC3)c(F)cc2c1=O")
"> 10.2"
>>> measuredresult("O=C(O)c1cn(C2CC2)c2cc(N3CCNCC3)c(F)cc2c1=O")
"> 0.3"

----------
experiment: Therapeutic index, ratio of IC50 for concanavalin-stimulated BALB/c mice (Mus musculus) splenocytes to IC50 for Plasmodium falciparum 3D7; settings: read-out: Ratio IC50
metric: selectivity ratio

>>> measuredresult("O=C(O)c1cn(C2CC2)c2cc(N3CCNCC3)c(F)cc2c1=O")
"> 0.8"
>>> measuredresult("CCOC(=O)c1cn(C2CC2)c2cc(N3CCNCC3)c(F)cc2c1=O")
"> 12.9"
